- measured.on: Human recombinant MMP14 (Homo sapiens, UniProt P50281)
- assay.info: MMP14 (MTI-MMP) inhibition, 14C collagen release
- cond: 35° C., 15 hours; read-out: MMP-14 inhibitory activity, IC50
pIC50: −log10 of the molar value.
measure: pIC50

Memo: CC1c2ccc([N+](=O)[O-])c(O)c2C(=O)C2=C(O)C3(O)C(=O)C(C(N)=O)=C(O)CC3C(O)C21 (stereo not shown) [Compound 35] , reported pIC50: 3.97

[P] CC1c2c([N+]#N)ccc(O)c2C(=O)C2=C(O)C3(O)C(=O)C(C(N)=O)=C(O)C(N(C)C)C3C(O)C21 (stereo not shown) [Compound 21]
[Q] CC(C)CNc1ccc(O)c2c1C(C)C1C(=C(O)C3(O)C(=O)C(C(N)=O)=C(O)C(N(C)C)C3C1O)C2=O (stereo not shown) [Compound 25]
[R] CN(C)c1cc([N+](=O)[O-])c(O)c2c1CC1CC3C(N(C)C)C(O)=C(C(N)=O)C(=O)C3(O)C(O)=C1C2=O (stereo not shown) [Compound 4]
Ask | Returns the items ordered by pIC50, from maximum to minimum. Arrange the labels as the request states and list them.
Reply | R, P, Q

###

- measured.on: Human recombinant MMP9 (Homo sapiens, UniProt P14780)
- Sequence (P14780 94-707): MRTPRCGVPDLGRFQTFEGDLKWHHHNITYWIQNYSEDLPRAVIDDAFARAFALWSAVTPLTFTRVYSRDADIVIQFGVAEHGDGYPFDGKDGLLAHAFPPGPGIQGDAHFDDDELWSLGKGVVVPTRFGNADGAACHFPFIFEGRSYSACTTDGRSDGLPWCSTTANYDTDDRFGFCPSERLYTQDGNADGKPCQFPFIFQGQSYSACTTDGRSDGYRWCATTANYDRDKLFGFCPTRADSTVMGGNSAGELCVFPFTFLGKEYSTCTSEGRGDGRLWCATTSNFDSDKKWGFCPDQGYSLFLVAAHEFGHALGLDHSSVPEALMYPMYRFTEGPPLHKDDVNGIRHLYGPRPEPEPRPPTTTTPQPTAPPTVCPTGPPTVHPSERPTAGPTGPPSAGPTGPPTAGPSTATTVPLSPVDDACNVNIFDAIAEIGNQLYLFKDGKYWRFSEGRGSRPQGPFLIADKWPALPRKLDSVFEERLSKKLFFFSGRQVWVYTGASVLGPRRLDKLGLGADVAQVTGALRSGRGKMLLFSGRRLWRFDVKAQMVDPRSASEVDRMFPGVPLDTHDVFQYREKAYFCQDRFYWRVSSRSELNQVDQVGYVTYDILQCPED
- assay.info: MMP9 (Gelatinase B) inhibition, 14C gelatin release
- cond: 37° C., 16 hours; read-out: MMP-9 inhibitory activity, IC50
Structures can show the parent of a compound that is named as a salt.
measure: IC50 (µM)

Memo: CN(C)c1cc(N=[N+]=[N-])c(O)c2c1CC1CC3C(N(C)C)C(O)=C(C(N)=O)C(=O)C3(O)C(O)=C1C2=O (stereo not drawn) [Compound 10] , reported IC50: 41

Memo: CN(C)c1cc([N+]#N)c(O)c2c1CC1CC3C(N(C)C)C(O)=C(C(N)=O)C(=O)C3(O)C(O)=C1C2=O (stereo not drawn) [Compound 9, HCL] , reported IC50: 28

Memo: CC1c2c([N+]#N)cc(C(C)(C)C)c(O)c2C(=O)C2=C(O)C3(O)C(=O)C(C(N)=O)=C(O)C(N(C)C)C3C(O)C21 (stereo not drawn) [Compound 43] , reported IC50: 319

Memo: CC1c2c(N(NC(=O)OCc3ccccc3)C(=O)OCc3ccccc3)ccc(O)c2C(=O)C2=C(O)C3(O)C(=O)C(C(N)=O)=C(O)C(N(C)C)C3C(O)C21.Cl (stereo not drawn) [Compound 47, HCl] , reported IC50: 88

[1] CN(C)C1C(O)=C(C(N)=O)C(=O)C2(O)C(O)=C3C(=O)c4c(O)c(Br)cc(Br)c4CC3CC12 (stereo not drawn) [Compound 13]
[2] CC1c2ccc(C(C)(C)C)c(O)c2C(=O)C2=C(O)C3(O)C(=O)C(C(N)=O)=C(O)C(N(C)C)C3C(O)C21 (stereo not drawn) [Compound 39]
Ask | // which entry has the larger IC50 value, 1 or 2 ? // caller expects the label of the chosen entry
Reply | 2

###

- measured.on: MMP2 (Gelatinase A) (Homo sapiens, UniProt P08253)
- Sequence (P08253 110-660): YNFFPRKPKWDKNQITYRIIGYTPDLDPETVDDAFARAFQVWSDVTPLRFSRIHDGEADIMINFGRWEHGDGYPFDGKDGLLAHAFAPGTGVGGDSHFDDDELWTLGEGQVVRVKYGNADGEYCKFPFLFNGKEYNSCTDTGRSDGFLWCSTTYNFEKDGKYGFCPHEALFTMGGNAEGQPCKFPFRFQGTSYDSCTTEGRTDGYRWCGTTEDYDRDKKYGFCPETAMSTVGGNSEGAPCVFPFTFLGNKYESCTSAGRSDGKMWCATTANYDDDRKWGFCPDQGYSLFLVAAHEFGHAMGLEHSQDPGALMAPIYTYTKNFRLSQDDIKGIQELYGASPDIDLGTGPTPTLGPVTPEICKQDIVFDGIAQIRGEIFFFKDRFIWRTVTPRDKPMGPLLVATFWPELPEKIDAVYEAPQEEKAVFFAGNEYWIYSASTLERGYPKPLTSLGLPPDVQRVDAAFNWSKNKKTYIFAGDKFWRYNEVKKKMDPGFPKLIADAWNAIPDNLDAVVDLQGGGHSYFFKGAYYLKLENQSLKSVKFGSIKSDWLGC
- assay.info: MMP2 (Gelatinase A) inhibition, 14C gelatin release
- Format: biochemical
- cond: 37° C., 16 hours; read-out: MMP-2 inhibitory activity, IC50
measure: IC50 (µM)

Memo: CC1c2c([N+](=O)[O-])cc(C(C)(C)C)c(O)c2C(=O)C2=C(O)C3(O)C(=O)C(C(N)=O)=C(O)C(N(C)C)C3C(O)C21 (centres unmarked) [Compound 38] , reported IC50: 175

[1] CC1c2cccc(O)c2C(=O)C2=C(O)C3(O)C(=O)C(C(N)=O)=C(O)C([N+](C)(C)C)C3C(O)C21.[I-] (centres unmarked) [Compound 46]
[2] CCCCCCN(CCCCCC)c1ccc(O)c2c1C(C)C1C(=C(O)C3(O)C(=O)C(C(N)=O)=C(O)C(N(C)C)C3C1O)C2=O (centres unmarked) [Compound 18]
[3] CC1c2c([N+]#N)cc(C(C)(C)C)c(O)c2C(=O)C2=C(O)C3(O)C(=O)C(C(N)=O)=C(O)CC3C(O)C21 (centres unmarked) [Compound 50]
[4] CC1c2c(N=[N+]=[N-])ccc(O)c2C(=O)C2=C(O)C3(O)C(=O)C(C(N)=O)=C(O)C(N(C)C)C3C(O)C21 (centres unmarked) [Compound 20]
Ask | Which order do these items take when sorted by rising IC50? List them. Arrange the labels as the request states and list them.
Reply | 2, 4, 3, 1

###

- measured.on: Human recombinant MMP1 (Homo sapiens)
- Sequence (P03956 100-469): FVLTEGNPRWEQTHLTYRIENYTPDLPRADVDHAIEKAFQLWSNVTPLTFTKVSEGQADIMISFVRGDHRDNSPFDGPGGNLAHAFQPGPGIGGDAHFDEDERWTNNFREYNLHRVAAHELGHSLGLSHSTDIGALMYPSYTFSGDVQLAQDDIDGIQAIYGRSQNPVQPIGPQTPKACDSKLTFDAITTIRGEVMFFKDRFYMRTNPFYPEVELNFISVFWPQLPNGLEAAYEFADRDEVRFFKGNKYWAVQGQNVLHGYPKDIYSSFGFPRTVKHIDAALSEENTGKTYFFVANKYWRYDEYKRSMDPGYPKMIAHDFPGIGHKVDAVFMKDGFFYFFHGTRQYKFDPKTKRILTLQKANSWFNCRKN
- assay.info: MMP1 (Collagenase-1) inhibition, 14C collagen release
- cond: 35° C., 5 hours; read-out: MMP-1 inhibitory activity, IC50
measure: IC50 (µM)

Memo: CC(C)CNc1ccc(O)c2c1C(C)C1C(=C(O)C3(O)C(=O)C(C(N)=O)=C(O)C(N(C)C)C3C1O)C2=O (stereo not shown) , reported IC50: 974

[a] CC1c2ccc([N+]#N)c(O)c2C(=O)C2=C(O)C3(O)C(=O)C(C(N)=O)=C(O)C(N(C)C)C3C(O)C21 (stereo not shown)
[b] CC1c2c([N+]#N)cc(C(C)(C)C)c(O)c2C(=O)C2=C(O)C3(O)C(=O)C(C(N)=O)=C(O)CC3C(O)C21 (stereo not shown)
Ask | // which entry has the larger IC50 value, a or b ? // caller expects the label of the chosen entry
Reply | a
(a: 427 µM, b: 211 µM)

###

- measured.on: Human recombinant MMP3 (Homo sapiens, UniProt P08254)
- Sequence (P08254 100-477): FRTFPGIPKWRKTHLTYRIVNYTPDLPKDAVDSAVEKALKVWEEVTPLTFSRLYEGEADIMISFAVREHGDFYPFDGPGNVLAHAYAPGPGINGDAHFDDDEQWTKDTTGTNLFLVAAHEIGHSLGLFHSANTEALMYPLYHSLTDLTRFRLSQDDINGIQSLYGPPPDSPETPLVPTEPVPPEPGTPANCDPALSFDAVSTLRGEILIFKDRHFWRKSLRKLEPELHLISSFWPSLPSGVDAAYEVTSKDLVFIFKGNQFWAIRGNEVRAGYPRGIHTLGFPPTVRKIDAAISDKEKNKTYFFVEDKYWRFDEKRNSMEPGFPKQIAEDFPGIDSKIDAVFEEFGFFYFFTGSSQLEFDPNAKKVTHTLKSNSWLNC
- assay.info: MMP3 (Stromelysin 1) inhibition, 14C casein release
- cond: 37° C., 16 hours; read-out: MMP-3 inhibitory activity, IC50
Counter-ions that a name gives are not always drawn.
measure: IC50 (µM)

Record CC(=O)OC1C2C(=C(O)C3(O)C(=O)C(C(N)=O)=C(O)C(N(C)C)C13)C(=O)c1c(O)cccc1C2C (stereo not shown) has Human recombinant MMP3 (Homo sapiens, UniProt P08254) IC50 equal to 231

Record CCCCN(CCCC)c1ccc(O)c2c1C(C)C1C(=C(O)C3(O)C(=O)C(C(N)=O)=C(O)C(N(C)C)C3C1O)C2=O (stereo not shown) has Human recombinant MMP3 (Homo sapiens, UniProt P08254) IC50 equal to 350

Record CC1c2ccc(C(C)(C)C)c(O)c2C(=O)C2=C(O)C3(O)C(=O)C(C(N)=O)=C(O)C(N(C)C)C3C(O)C21 (stereo not shown) has Human recombinant MMP3 (Homo sapiens, UniProt P08254) IC50 equal to 682

Record CN(C)c1cc(N)c(O)c2c1CC1CC3C(N(C)C)C(O)=C(C(N)=O)C(=O)C3(O)C(O)=C1C2=O (stereo not shown) has Human recombinant MMP3 (Homo sapiens, UniProt P08254) IC50 equal to 300

Record CCCN(CCC)c1ccc(O)c2c1C(C)C1C(=C(O)C3(O)C(=O)C(C(N)=O)=C(O)C(N(C)C)C3C1O)C2=O (stereo not shown) has Human recombinant MMP3 (Homo sapiens, UniProt P08254) IC50 equal to 191

Record CC(=O)N(CC(C)C)c1ccc(O)c2c1C(C)C1C(=C(O)C3(O)C(=O)C(C(N)=O)=C(O)C(N(C)C)C3C1O)C2=O.O=S(=O)(O)O (stereo not shown) has Human recombinant MMP3 (Homo sapiens, UniProt P08254) IC50 equal to 213

[a] CN(C)c1cc([N+]#N)c(O)c2c1CC1CC3C(N(C)C)C(O)=C(C(N)=O)C(=O)C3(O)C(O)=C1C2=O (stereo not shown) [Compound 9, HCL]
[b] CC1c2c([N+](=O)[O-])cc(C(C)(C)C)c(O)c2C(=O)C2=C(O)C3(O)C(=O)C(C(N)=O)=C(O)C(N(C)C)C3C(O)C21 (stereo not shown)
Ask | // pick min by IC50: a , b // caller expects the label of the chosen entry
Reply | b
